target-desc: NPY Y5 receptor (Homo sapiens, UniProt Q15761)
Sequence (Q15761 1-445): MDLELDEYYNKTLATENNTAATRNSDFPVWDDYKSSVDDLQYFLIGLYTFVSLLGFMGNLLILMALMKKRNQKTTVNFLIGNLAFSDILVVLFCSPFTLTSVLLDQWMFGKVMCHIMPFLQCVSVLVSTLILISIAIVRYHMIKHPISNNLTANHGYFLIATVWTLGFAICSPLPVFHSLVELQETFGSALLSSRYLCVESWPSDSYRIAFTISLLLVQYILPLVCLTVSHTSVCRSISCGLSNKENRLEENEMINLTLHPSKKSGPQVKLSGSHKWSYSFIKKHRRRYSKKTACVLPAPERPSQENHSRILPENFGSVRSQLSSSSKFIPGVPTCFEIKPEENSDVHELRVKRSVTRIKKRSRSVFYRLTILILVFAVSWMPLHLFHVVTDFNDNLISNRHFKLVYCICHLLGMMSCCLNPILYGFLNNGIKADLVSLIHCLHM
experimental-details: Radioligand (125I-PYY) binding to membrane suspensions, cloned human NPY Y5 receptor
Set-up: expressed in transfected cells; host or cells: LM(tk-) cells (typically)
experimental-context: 125I-PYY competition binding, membranes of transfected cells; read-out: Ki (nM), binding affinity of selected compounds
endpoint-label: Ki (nM)

1. CS(=O)(=O)N1CCC(CC(=O)Nc2ccc(-c3cc(F)cc(F)c3)nc2)CC1 [Example 2aj]
28
2. O=C(C[C@H]1CCN2C(=O)OC[C@H]2C1)Nc1ccc(-c2cc(F)cc(F)c2)cn1 [Example 3o]
17

(1) CC(=O)N1CCN(CC(=O)Nc2ccc(-c3cc(F)cc(F)c3)cn2)C[C@@H]1C [Example 1e]
(2) O=C(C[C@H]1CCN2C(=O)OC[C@H]2C1)Nc1ccn(-c2ccc(Cl)cc2F)n1 [Example 3cc]
Lab log: flag the item ( 1 or 2 ) with the smaller Ki figure. Give the chosen item's label as your response.
2

---

target-desc: NPY Y5 receptor (Homo sapiens)
experimental-details: Radioligand (125I-PYY) binding to membrane suspensions, cloned human NPY Y5 receptor
Parameters: expressed in transfected cells; host or cells: LM(tk-) cells (typically)
experimental-context: 125I-PYY competition binding, membranes of transfected cells; read-out: Ki (nM), binding affinity of selected compounds
endpoint-label: Ki (nM)

Answered examples (6):
1) O=C(CC1CCN2C(=O)OCC2C1)Nc1cnc(-c2cc(F)cc(F)c2)cn1 (centres unmarked) [Example 3l]
25
2) Cn1nccc1C(=O)N1CCC(C(C)(C)C(=O)Nc2ccc(-c3cc(F)cc(F)c3)cn2)CC1 [Example 5q]
570
3) CC(=O)N1CCC(CC(=O)Nc2ccc(-c3cc(F)cc(F)c3)cn2)CC1 [Example 2a]
46
4) CC(=O)N1CCC(CC(=O)Nc2ccc(-c3ccccc3)cc2)CC1 [Example 5a]
120
5) CC1(C)OC(=O)N2CCC(CC(=O)Nc3ccn(-c4ccccc4F)n3)CC21 (centres unmarked) [Example 3i]
50
6) O=C(C[C@H]1CCN2C(=O)CC[C@H]2C1)Nc1ccc(-c2cc(F)cc(F)c2)cn1 [Example 3a]
36

(A) O=C(c1ccccn1)N1CCC(C2(C(=O)Nc3ccc(-c4cc(F)cc(F)c4)cc3)CC2)CC1 [Example 5m]
(B) CC(=O)N1CCN(CC(=O)Nc2ccc(-c3cc(F)cc(F)c3)cn2)CC1 [Example 1a]
Exercise: compare A and B ; which one has the greater Ki? Give the chosen item's label as your response.
B
(B: 220 nM, A: 14 nM)

Origin of measurements: patent US20110230497A1
